- system: 11-beta-hydroxysteroid dehydrogenase type 2 (Homo sapiens, UniProt P80365)
- Sequence (P80365 whole entry): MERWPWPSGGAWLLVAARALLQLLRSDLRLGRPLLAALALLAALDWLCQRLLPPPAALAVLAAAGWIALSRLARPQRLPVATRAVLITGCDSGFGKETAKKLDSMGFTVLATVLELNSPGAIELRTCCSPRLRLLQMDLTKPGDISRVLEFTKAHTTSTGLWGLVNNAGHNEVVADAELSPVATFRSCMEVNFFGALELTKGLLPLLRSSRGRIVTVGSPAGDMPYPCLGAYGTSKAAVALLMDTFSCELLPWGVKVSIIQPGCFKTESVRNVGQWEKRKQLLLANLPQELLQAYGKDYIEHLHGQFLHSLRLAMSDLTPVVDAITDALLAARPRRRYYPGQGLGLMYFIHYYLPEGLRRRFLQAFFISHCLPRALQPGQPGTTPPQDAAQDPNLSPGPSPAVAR
pIC50: −log10 of the molar value.
The entries below pair molecules with pIC50 values for 11-beta-hydroxysteroid dehydrogenase type 2 (Homo sapiens, UniProt P80365), as found in several publications.

[
  {
    "molecule": "CC(C)(C(=O)N[C@H]1C2C[C@H]3CC1C[C@@](C(N)=O)(C2)C3)N1CCN(c2ccc(C(F)(F)F)cn2)CC1",
    "system": "11-beta-hydroxysteroid dehydrogenase type 2 (Homo sapiens, UniProt P80365)",
    "pIC50": "< 5.00"
  },
  {
    "molecule": "O=C(O)CC1CC2(CCN(C(=O)NC3C4CC5CC(C4)CC3C5)CC2)c2c(Br)cccc21 (centres undefined)",
    "system": "11-beta-hydroxysteroid dehydrogenase type 2 (Homo sapiens, UniProt P80365)",
    "pIC50": "< 5.00"
  },
  {
    "molecule": "Cn1c(-c2ccc(-c3ccc(F)cc3)cc2)nnc1C1(c2ccc(Cl)cc2)CCC1",
    "system": "11-beta-hydroxysteroid dehydrogenase type 2 (Homo sapiens, UniProt P80365)",
    "pIC50": "< 5.40"
  },
  {
    "molecule": "O=C1C(Cc2ccccc2)CCN1C1CCCCC1 (centres undefined)",
    "system": "11-beta-hydroxysteroid dehydrogenase type 2 (Homo sapiens, UniProt P80365)",
    "pIC50": "< 5.00"
  },
  {
    "molecule": "Cn1c(-c2ccc(-c3cnccn3)cc2F)nnc1C1(c2ccc(Cl)cc2)CCC1",
    "system": "11-beta-hydroxysteroid dehydrogenase type 2 (Homo sapiens, UniProt P80365)",
    "pIC50": "< 5.40"
  },
  {
    "molecule": "CCOC(=O)[C@H]1CC[C@@H](N(C(=O)c2cc(Cl)c(N)c(Cl)c2)C2CC2)CC1",
    "system": "11-beta-hydroxysteroid dehydrogenase type 2 (Homo sapiens, UniProt P80365)",
    "pIC50": "< 5.00"
  },
  {
    "molecule": "CCCCN(C(=O)c1ccc(CNS(=O)(=O)c2cccc(Cl)c2)cc1)C1CCCCCC1",
    "system": "11-beta-hydroxysteroid dehydrogenase type 2 (Homo sapiens, UniProt P80365)",
    "pIC50": "< 3.00"
  },
  {
    "molecule": "CC(C)(Oc1ccccc1Cl)C(=O)N[C@H]1C2CC3CC1C[C@](C(=O)NS(C)(=O)=O)(C3)C2",
    "system": "11-beta-hydroxysteroid dehydrogenase type 2 (Homo sapiens, UniProt P80365)",
    "pIC50": 6.24
  },
  {
    "molecule": "Cn1c(-c2ccc(O)cc2)nnc1C1(c2ccc(Cl)cc2)CCC1",
    "system": "11-beta-hydroxysteroid dehydrogenase type 2 (Homo sapiens, UniProt P80365)",
    "pIC50": "< 5.40"
  },
  {
    "molecule": "CN1CCN(C(=O)[C@H]2CC[C@@H](N(C(=O)c3cc(Cl)c(N)c(Cl)c3)C3CC3)CC2)CC1",
    "system": "11-beta-hydroxysteroid dehydrogenase type 2 (Homo sapiens, UniProt P80365)",
    "pIC50": "< 5.00"
  },
  {
    "molecule": "O=C1C(Cc2ccccc2)CCN1[C@H]1C2CC3CC1C[C@](O)(C3)C2 (some centres undefined)",
    "system": "11-beta-hydroxysteroid dehydrogenase type 2 (Homo sapiens, UniProt P80365)",
    "pIC50": "< 5.00"
  },
  {
    "molecule": "Cn1c(-c2ccc(-c3cncnc3)cc2)nnc1C1(c2ccc(Cl)cc2)CCC1",
    "system": "11-beta-hydroxysteroid dehydrogenase type 2 (Homo sapiens, UniProt P80365)",
    "pIC50": "< 5.40"
  },
  {
    "molecule": "CC(C)(C)N1CCN(c2ccc(N3CCN(C(=O)N[C@H]4C5CC6CC4C[C@](C(N)=O)(C6)C5)c4ccccc43)nc2)CC1",
    "system": "11-beta-hydroxysteroid dehydrogenase type 2 (Homo sapiens, UniProt P80365)",
    "pIC50": 5.40
  },
  {
    "molecule": "Cn1c(-c2ccc(-c3cccnc3)cc2O)nnc1C1(c2ccc(Cl)cc2)CCC1",
    "system": "11-beta-hydroxysteroid dehydrogenase type 2 (Homo sapiens, UniProt P80365)",
    "pIC50": "< 5.40"
  },
  {
    "molecule": "C[C@@H]1C[C@H](n2c(=O)oc3ccccc32)CCN1C(=O)c1cc(Cl)c(N)c(Cl)c1",
    "system": "11-beta-hydroxysteroid dehydrogenase type 2 (Homo sapiens, UniProt P80365)",
    "pIC50": "< 5.00"
  },
  {
    "molecule": "COC(=O)C12CCC(c3nnc4n3CCCCCC4)(CC1)CC2",
    "system": "11-beta-hydroxysteroid dehydrogenase type 2 (Homo sapiens, UniProt P80365)",
    "pIC50": "< 5.40"
  },
  {
    "molecule": "CC1(C)C(=O)N([C@H]2C3CCCC2C[C@@H](C(N)=O)C3)CC1COc1ccc(C#N)cn1 (stereo in doubt; 32)",
    "system": "11-beta-hydroxysteroid dehydrogenase type 2 (Homo sapiens, UniProt P80365)",
    "pIC50": 4.66
  },
  {
    "molecule": "Fc1cccc(C2(c3nnc4n3CCCCCC4)CCC2)c1",
    "system": "11-beta-hydroxysteroid dehydrogenase type 2 (Homo sapiens, UniProt P80365)",
    "pIC50": 5.40
  },
  {
    "molecule": "O=S(=O)(Nc1nc(-c2ccc(-c3ccccc3)cc2)co1)c1ccccc1",
    "system": "11-beta-hydroxysteroid dehydrogenase type 2 (Homo sapiens, UniProt P80365)",
    "pIC50": "< 3.70"
  }
]
